Property: IRF reporter; scope: individual molecules
# Tested on: RAW-Dual (murine macrophage reporter line)
# EXPERIMENTAL_PROTOCOL: IRF reporter (Lucia luciferase) activity fold change vs agonist alone; higher = enhanced IRF activity
# COND: modulator concentration 10 µM; agonist: LPS 0.1 ug/mL
// keep it numeric: no unit symbol after the value

Answered cases to consult:
CS(=O)(=O)N(CC(=O)NCCSCc1cccc(Cl)c1)c1ccc(F)cc1
1.13
Cc1ccc(Sc2c(C)nn(-c3ccccc3)c2OC(=O)C(C)(C)C)cc1
1.08

Pending molecule:
Asked: Any idea what its IRF reporter is? The molecule is `O=c1[nH]nc(Br)c(=O)[nH]1`
Given back: 1.03

* * *

# System: RAW-Dual (murine macrophage reporter line)
# EXPERIMENTAL_PROTOCOL: IRF reporter (Lucia luciferase) activity fold change vs agonist alone; higher = enhanced IRF activity
# COND: modulator concentration 10 µM; agonist: 3'3'-cGAMP 10 ug/mL
IRF reporter of 0.9 or higher: TRUE. Under 0.9: FALSE.

CCN1CCCC1CNC(=O)c1cc(S(=O)(=O)CC)c(N)cc1OC (stereo not drawn)
FALSE
C#Cc1cccc(Nc2ncnc3cc(OCCOC)c(OCCOC)cc23)c1.Cl
FALSE
Cn1c(=O)cc(N2CCC[C@@H](N)C2)n(Cc2cc(F)ccc2C#N)c1=O.O=C(O)CCC(=O)O
FALSE
COCCN1CCC(NC(=O)c2cnc3ccccc3n2)CC1
TRUE

Asked: API: above_or_equal(metric=IRF reporter, cutoff=0.9) for item O=C(OC1Cc2c(O)cc(O)cc2OC1c1cc(O)c(O)c(O)c1)c1cc(O)c(O)c(O)c1 (stereo not drawn)
Given back: FALSE

Asked: API: above_or_equal(metric=IRF reporter, cutoff=0.9) for item `CCCCNC(=O)Cc1ccc(Br)cc1`
Given back: TRUE

* * *

# System: RAW-Dual (murine macrophage reporter line)
# EXPERIMENTAL_PROTOCOL: IRF reporter (Lucia luciferase) activity fold change vs agonist alone; higher = enhanced IRF activity
# COND: modulator concentration 10 µM; agonist: MPLA […]
PROPERTY_NAME: IRF reporter
// keep it numeric: no unit symbol after the value

O=C(Nc1cc(N2CCN(Cc3ccccc3)CC2)ncn1)c1ccc2ccccc2n1
1.24
O=C(O)CCc1nc(-c2ccccc2)c(-c2ccccc2)o1
1.03
Cl.Clc1ccc2nsnc2c1NC1=NCCN1
1.06

Asked: Write down the reported IRF reporter of CC(C)C1=CC2=CCC3C(C)(C(=O)O)CCCC3(C)C2CC1 (centres undefined) , test system: RAW-Dual (murine macrophage reporter line).
Given back: 1.35

* * *

# System: RAW-Dual (murine macrophage reporter line)
# EXPERIMENTAL_PROTOCOL: viability score (confluency relative to resting cells, overnight) (fraction); higher = more viable, active = viable (0.7 or more)
# COND: modulator concentration 10 µM
PROPERTY_NAME: viability score
// keep it numeric: no unit symbol after the value

Answered cases to consult:
O=C(CSc1nc2c(c(=O)n1-c1ccccc1)SCC2)N1CCN(c2ccccc2)CC1
1
Cl.NCc1ccc(S(N)(=O)=O)cc1
1
NNC(=O)CN1C(=O)C2CC=C(Cl)CC2C1=O (configuration not stated)
0.999
Br.NC(=O)C(c1ccccc1)(c1ccccc1)[C@@H]1CCN(CCc2ccc3c(c2)CCO3)C1
0.975
C[C@H](Nc1ncnc2[nH]cnc12)c1cc2cccc(Cl)c2c(=O)n1-c1ccccc1
0.906

Asked: Any idea what its viability score is? The compound is CCC(C)(Oc1ccc(C2(c3ccc(OC(C)(CC)C(=O)O)cc3)CCCCC2)cc1)C(=O)O (configuration not stated)
Given back: 0.986

Asked: Any idea what its viability score is? The compound is `Cc1ccc(Nc2nc(N3CCOCC3)nc(N3CCN(c4ccccc4)CC3)n2)cc1`
Given back: 0.996

Provenance of the data: the supplement of paper PMC10646978
